- test.target: insulin (Homo sapiens)
- Construct: purchased Roche 1376497
- Sequence (P01308 25-54 limits assumed): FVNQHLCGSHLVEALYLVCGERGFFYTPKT
- Sequence (P01308 90-110 limits assumed): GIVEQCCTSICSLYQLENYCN
- test.method.notes: Kinetic analysis using surface plasmon resonance (Biacore T200), immobilized insulin
- Format: binding
- measurement.context: Table 3, mutation study 1; MGSSHHHHHHGSS-[Y#####]
readout: pKd
Scale: pKd equals -log10([C]), with [C] in mol/L.

I am curious: what pKd value has been reported for Y00267: insulin binding Y variant, Y00032 with A19E, SEQ ID NO:114 (LAEAKEAAIAELDSKGVGEYQKSFIELAKSVEHVELLKEAILADLP; Engineered insulin binding Y variant) ?
7.23

// query pKd value for entry Y00268: insulin binding Y variant, Y00032 with K22I, SEQ ID NO:115 (LAEAKEAAIAELDSKGVGAYQISFIELAKSVEHVELLKEAILADLP; Engineered insulin binding Y variant)
7.08

---

- test.method.notes: Fraction of soluble product on expression in E. coli, estimated from SDS-PAGE
- Format: physicochemical
- measurement.context: Table 7; Ylib002Naive.I selection; MGSSHHHHHHGSS-[Y#####]-A
readout: Estimated soluble fraction (%)
Express it in %; write the number only.

If you can, please state the reported Estimated soluble fraction value of Y00304: insulin binding Y variant from Ylib002Naive.I, SEQ ID NO:134 (LAEAKEAAIAELDSKGVGAYQIKFIQVAHDVEEVQILKQAILADLPA; Engineered insulin binding Y variant) .
33

Entry under review: Y00356a: insulin binding Y variant from Ylib002Naive.I, SEQ ID NO:141 (LAEAKEAAIAELDSKGVGAKYIKMIQHAHYVEVVQWLKQAILAHLPA; Engineered insulin binding Y variant) . Reported Estimated soluble fraction?
60

---

- test.method.notes: Circular dichroism spectroscopy analysis (CD spectra, variable temperature measurement, refolding)
- Format: physicochemical
- measurement.context: Table 4, mutation study 2; MGSSHHHHHHGSS-[Y#####]
Label class 1 when Tm is at or above 60 °C; otherwise label class 0.

hey, is Tm for this one >= 60 °C? Y00294: insulin binding Y variant, Y00270 with E35Q + A43K, SEQ ID NO:126 (LAEAKEAAIAELDSKGVGAYQIKFIELAKSVEHVQLLKEAILKDLP; Engineered insulin binding Y variant)
class 0

Tell me whether Tm is at least 60 °C here: Y00295: insulin binding Y variant, Y00270 with E35Q + E39Q + A43K, SEQ ID NO:127 (LAEAKEAAIAELDSKGVGAYQIKFIELAKSVEHVQLLKQAILKDLP; Engineered insulin binding Y variant)
class 0

Exam item: decide whether the reported Tm for Y00289: C4 binding Y variant, Y00262 with E35Q + E39Q, SEQ ID NO:26 (LAEAKEAAIAELDSKGINEAIIKKIERAESVEEVQYWKQEILAQLP; Engineered C4 binding Y variant) is at least 60 °C.
class 1

Kindly determine if Tm recorded for Y00285: C4 binding Y variant, Y00262 with I22K, SEQ ID NO:22 (LAEAKEAAIAELDSKGINEAIKKKIERAESVEEVEYWKEEILAQLP; Engineered C4 binding Y variant) is above or exactly 60 °C.
class 0

Does the substance Y00032: insulin binding Y variant from Ylib001Naive.I, SEQ ID NO:90 (LAEAKEAAIAELDSKGVGAYQKSFIELAKSVEHVELLKEAILADLP; Engineered insulin binding Y variant) have recorded Tm that is 60 °C or more?
class 0

Does Y00287: C4 binding Y variant, Y00262 with E35Q, SEQ ID NO:24 (LAEAKEAAIAELDSKGINEAIIKKIERAESVEEVQYWKEEILAQLP; Engineered C4 binding Y variant) have a reported Tm of at least 60 °C?
class 1

Does Y00284: C4 binding Y variant, Y00262 with E19A, SEQ ID NO:21 (LAEAKEAAIAELDSKGINAAIIKKIERAESVEEVEYWKEEILAQLP; Engineered C4 binding Y variant) have a reported Tm of at least 60 °C?
class 1

Could you tell me if the measured Tm of Y00286: C4 binding Y variant, Y00262 with E26Q, SEQ ID NO:23 (LAEAKEAAIAELDSKGINEAIIKKIQRAESVEEVEYWKEEILAQLP; Engineered C4 binding Y variant) reaches 60 °C or more?
class 1
